test system: LNCaP; experiment: Cytotoxicity against quiescent human LNCAP cells assessed as induction of cell death at 20 uM measured after 24 hrs by SYBR green dye based fluorescence analysis; format: functional
The source made the active and inactive calls. No cut-off for these calls is given here.

MOLECULE | Activity
CC(C)=CCc1c(O)cc(O)c2c(=O)c3c(oc12)C(=O)[C@@]1(O)C(=O)[C@]3(CC=C(C)C)C[C@@H]2C(C)(C)CCC[C@]21C | Active
COC(=O)[C@]1(O)C(=O)[C@](CC=C(C)C)(C/C=C(\C)CCC=C(C)C)c2c1oc1c(CC=C(C)C)c(O)cc(O)c1c2=O | Active
COC(=O)C12OC(=O)C(CC=C(C)C)(CC=C(C)C)C1C(=O)c1c(O)cc3c(c1O2)C=CC(C)(C)O3 (racemic) | Active
CC(C)=CCC/C(C)=C/C[C@@]12C[C@H](C(C)(C)O)OC1=C(O)C(=O)c1oc3c4c(cc(O)c3c(=O)c12)OC(C)(C)C=C4 | Active

----------
test system: LNCaP; experiment: Cytotoxicity against quiescent human LNCAP cells assessed as induction of cell death at 20 uM measured after 24 hrs by SYBR green dye based fluorescence analysis; assay type: functional
The source made the active and inactive calls. The calls are words filed in the database; no cut-off is given here.
Select the matching outcome among active, inactive

Q: Which outcome was assigned to CC(=O)O[C@H]1C(=O)[C@@]2(C)[C@H]([C@H](OC(=O)c3ccccc3)[C@]3(O)C[C@H](OC(=O)[C@H](O)[C@@H](NC(=O)c4ccccc4)c4ccccc4)C(C)=C1C3(C)C)[C@]1(OC(C)=O)CO[C@@H]1C[C@@H]2O [PACLITAXEL] in this test?
Ans: inactive
